- Procedure text: Human HepG2 cell viability assay in 384 well format
- Type: toxicity, cell-based
- Parameters: dose 125 nL, time 70.5 hour; concentration not given beside the values
- Applied conditions: HepG2 cells, read-out: Inhibition
Endpoint name: cytotoxicity at 70.5 h (%)
Express it in %; write the number only.

INSERT INTO assay_data (molecule, endpoint_name, measured_value) VALUES
  ('CCc1ccc(C(N)c2cccc(S(C)(=O)=O)c2)cc1 (configuration not stated)', 'cytotoxicity at 70.5 h', -4.78);

Exercise: # lookup: cytotoxicity at 70.5 h of O=S(=O)(CCCn1cncn1)Cc1cccc(F)c1
Key: -9.13

Exercise: # lookup: cytotoxicity at 70.5 h of COc1ccc(CC(C)(O)CNC(=O)NCc2cccs2)cc1 (configuration not stated)
Key: -13.9

Exercise: # lookup: cytotoxicity at 70.5 h of c1cncc(COCc2nnc3n2CCN(Cc2cccs2)C3)c1
Key: 12.3

Exercise: # lookup: cytotoxicity at 70.5 h of O=C(NCC1CCOCC1)c1cc(-c2ccncc2)c2cnccc2n1
Key: -2.01

Exercise: # lookup: cytotoxicity at 70.5 h of COc1ccccc1OC1CN(C(=O)CN(C)Cc2ccncc2)C1
Key: -14.2

Exercise: # lookup: cytotoxicity at 70.5 h of Cc1cnn(CCC(=O)Nc2ccc(F)cc2OCC2CC2)c1
Key: -12.1

Exercise: # lookup: cytotoxicity at 70.5 h of CCc1ccccc1OCC(=O)N1CCOCC1c1ncon1 (configuration not stated)
Key: 28.4

Exercise: # lookup: cytotoxicity at 70.5 h of O=C(c1ccco1)N1CCc2onc(Cn3cccn3)c2C1
Key: -7.44

Exercise: # lookup: cytotoxicity at 70.5 h of COc1ccncc1NCc1ccsc1
Key: -2.45

Exercise: # lookup: cytotoxicity at 70.5 h of CC(=O)N(Cc1ncc(C)o1)C1CCN(Cc2ccccc2C#N)C1 (configuration not stated)
Key: -3.02

Exercise: # lookup: cytotoxicity at 70.5 h of Cn1cccc1C(=O)N1CCC2(CCCN(CC3CCC3)C2=O)C1 (configuration not stated)
Key: -2.25
